This collection of values is drawn from patent US8729061B2.

Entries annotated with measured log10 of IC50
# TARGET_OR_TEST_SYSTEM: human Cat K (Homo sapiens (Human), UniProt P43235)
# Sequence (P43235 115-329): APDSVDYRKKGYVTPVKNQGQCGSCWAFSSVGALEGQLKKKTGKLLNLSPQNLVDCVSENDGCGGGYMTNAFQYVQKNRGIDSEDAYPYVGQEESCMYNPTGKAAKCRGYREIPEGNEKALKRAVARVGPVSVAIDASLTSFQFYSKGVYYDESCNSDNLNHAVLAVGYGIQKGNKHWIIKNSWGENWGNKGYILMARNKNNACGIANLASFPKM
Hello, just confirming the data are log10 of IC50 with units of nM.

Lab note: need log10 of IC50 with human Cat K (Homo sapiens (Human), UniProt P43235) for entry `CC[C@H](NC(=O)[C@@H]1C[C@@H](S(=O)(=O)c2ccc(OCC(F)(F)F)cc2Cl)CN1C(=O)C1(c2ncc(Cl)cc2F)CC1)C(=O)C(=O)NC1CC1` , please look it up. 2.07

Lab note: need log10 of IC50 with human Cat K (Homo sapiens (Human), UniProt P43235) for entry `CCCCNC(=O)C(=O)[C@H](CC)NC(=O)[C@@H]1C[C@@H](S(=O)(=O)c2ccccc2Cl)CN1C(=O)C1(c2ncc(Cl)cc2F)CC1` , please look it up. 2.16

Lab note: need log10 of IC50 with human Cat K (Homo sapiens (Human), UniProt P43235) for entry `CCC[C@H](NC(=O)[C@@H]1C[C@@H](S(=O)(=O)c2ccccc2Cl)CN1C(=O)C1(c2ccc(Cl)cc2)CC1)C(=O)C(=O)NCC(F)(F)F` , please look it up. 2.61

Lab note: need log10 of IC50 with human Cat K (Homo sapiens (Human), UniProt P43235) for entry `CC[C@H](NC(=O)[C@@H]1C[C@@H](S(=O)(=O)c2ccccc2C(F)(F)F)CN1C(=O)C1(C(F)(F)F)CC1)C(=O)C(=O)NC1CC1` , please look it up. 4.05

Lab note: need log10 of IC50 with human Cat K (Homo sapiens (Human), UniProt P43235) for entry `CC[C@H](NC(=O)[C@@H]1C[C@@H](S(=O)(=O)c2ccc(Br)cc2C(F)(F)F)CN1c1cc(C)nn1C1CCC1)C(=O)C(=O)NC1CC1` , please look it up. 2.23

Now take the following molecule into account.
Lab note: need log10 of IC50 with human Cat K (Homo sapiens (Human), UniProt P43235) for entry `CC[C@H](NC(=O)[C@@H]1C[C@@H](S(=O)(=O)c2ccccc2C(F)(F)F)CN1c1ccccc1[N+](=O)[O-])C(=O)C(=O)NC1CC1` , please look it up. 3.87

* * *

In what follows, each item is paired with its IC50 for human Cat B (Homo sapiens (Human)).
Expressed in µM, but write only the number.

Below, each entry is followed by its recorded IC50 result.
Lab note: need IC50 with human Cat B (Homo sapiens (Human)) for entry CCC[C@H](NC(=O)[C@@H]1C[C@@H](S(=O)(=O)c2ccc(O[C@@H](C)C(F)(F)F)cc2Cl)CN1C(=O)C1(c2ccc(Cl)cc2)CC1)C(=O)C(=O)NC1CC1 [Example 46] , please look it up. 0.224

Lab note: need IC50 with human Cat B (Homo sapiens (Human)) for entry CC[C@H](NC(=O)[C@@H]1C[C@@H](S(=O)(=O)c2ccc(Cl)cc2Cl)CN1C(=O)C1(c2ccc(Cl)cc2)CC1)C(=O)C(=O)NC1CC1 [Example 38] , please look it up. 0.154

New cases:
Lab note: need IC50 with human Cat B (Homo sapiens (Human)) for entry CC[C@H](NC(=O)[C@@H]1C[C@@H](S(=O)(=O)c2ccccc2Cl)CN1C(=O)C1(c2ccc(Cl)cc2)CC1)C(=O)c1nc2ccccc2o1 [Example 12] , please look it up. 0.183
